assay-system: T1, human PCSK9 (human, UniProt Q8NBP7 31-692, limits assumed)
T1 construct: also called hPCSK9; huPCSK9
T1 sequence (Q8NBP7 31-692 limits assumed): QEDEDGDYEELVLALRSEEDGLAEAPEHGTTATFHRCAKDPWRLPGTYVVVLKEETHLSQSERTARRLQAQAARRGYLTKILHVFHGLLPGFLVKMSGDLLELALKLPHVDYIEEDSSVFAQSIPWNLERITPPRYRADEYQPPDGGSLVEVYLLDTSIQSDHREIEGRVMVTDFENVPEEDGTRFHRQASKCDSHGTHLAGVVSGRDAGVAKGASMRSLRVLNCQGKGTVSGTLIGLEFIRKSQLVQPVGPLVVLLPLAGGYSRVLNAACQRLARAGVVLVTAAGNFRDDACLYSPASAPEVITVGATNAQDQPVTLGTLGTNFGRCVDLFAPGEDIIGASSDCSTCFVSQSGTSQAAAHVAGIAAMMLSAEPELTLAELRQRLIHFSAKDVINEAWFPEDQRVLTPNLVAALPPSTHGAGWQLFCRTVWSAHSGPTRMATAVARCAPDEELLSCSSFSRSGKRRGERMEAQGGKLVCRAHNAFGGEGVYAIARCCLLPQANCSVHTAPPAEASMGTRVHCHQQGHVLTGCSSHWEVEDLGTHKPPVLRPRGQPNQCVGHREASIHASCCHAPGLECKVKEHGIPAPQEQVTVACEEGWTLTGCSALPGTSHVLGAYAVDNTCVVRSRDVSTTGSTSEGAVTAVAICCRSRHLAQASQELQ
experiment-description: SPR Biacore 3000, captured IgG, hPCSK9 injected, pH 7.4
So I've got a bunch of binders here, and I need their kon values.
Write the answer as a number in M⁻¹ s⁻¹, unit excluded.

Supply reported kon belonging to this binder: 5L1724H23_6L3 (antibody, V domains shown, Only CDRs printed; Full-length IgG) VH: QVQLVQSGAEVKKPGASVKVSCKASGYTFTSYYMHWVRQAPGQGLEWMGEIHPSGGRTNYNEKFKSRVTMTRDTSTSTVYMELSSLRSEDTAVYYCARERPLYAMDYWGQGTTVTVSS VL: DIQMTQSPSSLSASVGDRVTITCKASQDVHTAVAWYQQKPGKAPKLLIYSASHRYTGVPSRFSGSGSGTDFTFTISSLQPEDIATYYCQQRYSLWRTFGQGTKLEIK 35900

Supply reported kon belonging to this binder: 5L1721H23 (antibody, V domains shown, Triple histidine mutant of h5A10; Only CDRs printed; Full-length IgG) VH: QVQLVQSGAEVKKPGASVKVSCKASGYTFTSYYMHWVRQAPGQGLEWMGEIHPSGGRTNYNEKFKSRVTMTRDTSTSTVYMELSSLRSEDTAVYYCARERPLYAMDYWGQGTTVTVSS VL: DIQMTQSPSSLSASVGDRVTITCKASQDVHTAVAWYQQKPGKAPKLLIYHASYRYTGVPSRFSGSGSGTDFTFTISSLQPEDIATYYCQQRYSTPRTFGQGTKLEIK 31700

Supply reported kon belonging to this binder: 6L1721 (antibody, V domains shown, L1L3-based mutant; Tested as full-length IgG) VH: QVQLVQSGAEVKKPGASVKVSCKASGYTFTSYYMHWVRQAPGQGLEWMGEISPFGGRTNYNEKFKSRVTMTRDTSTSTVYMELSSLRSEDTAVYYCARERPLYASDLWGQGTTVTVSS VL: DIQMTQSPSSLSASVGDRVTITCRASQGIHSALAWYQQKPGKAPKLLIYHASYRYTGVPSRFSGSGSGTDFTFTISSLQPEDIATYYCQQRYSLWRTFGQGTKLEIK 32900
